Every entry's value here was drawn from patent US20260092061A1.

Tested Target: BRD9 (Homo sapiens, UniProt Q9H8M2)
Test Description: Degradation of BRD9 (IF), immunofluorescence in MV4-11 cells, 24 hours (Assay Protocol 2)
Type: cell-based
Set-up: A suspension of MV4-11 cells (ATCC CRL-9591) was prepared; host or cells: MV4-11
Condition Set: MV4-11, Assay protocol 2; BRD9 degradation; read-out: Dmax
Listing of entries alongside the reported Dmax.

These solved cases illustrate the format of a correct answer.
COc1cc(-c2cn(C)c(=O)c(C)c2C)cc(OC)c1CN1CCN(Cc2cccc(C3CCCN3C(=O)/C(C#N)=C/c3nc(C(F)(F)F)cs3)c2)CC1 (stereo not drawn) ... > 75%
COc1cc(-c2cn(C)c(=O)c(C)c2C)cc(OC)c1CN1CCN(CC(=O)NCCOc2cccc(C3CCCN3C(=O)/C(C#N)=C/c3nccs3)c2)CC1 (mixture of isomers) ... 40 to 70%

Continue with the compound presented below.
Reported Dmax of COc1cc(-c2cn(C)c(=O)c(C)c2C)cc(OC)c1CN1CCN(Cc2ccc3c(c2)[C@@H](C)N(C(=O)/C(C#N)=C/C(C)(C)C)CC3)CC12CC2 (mixture of isomers) : 40 to 70%

====

Tested Target: BRD9 (Homo sapiens)
Sequence (Q9H8M2 1-597): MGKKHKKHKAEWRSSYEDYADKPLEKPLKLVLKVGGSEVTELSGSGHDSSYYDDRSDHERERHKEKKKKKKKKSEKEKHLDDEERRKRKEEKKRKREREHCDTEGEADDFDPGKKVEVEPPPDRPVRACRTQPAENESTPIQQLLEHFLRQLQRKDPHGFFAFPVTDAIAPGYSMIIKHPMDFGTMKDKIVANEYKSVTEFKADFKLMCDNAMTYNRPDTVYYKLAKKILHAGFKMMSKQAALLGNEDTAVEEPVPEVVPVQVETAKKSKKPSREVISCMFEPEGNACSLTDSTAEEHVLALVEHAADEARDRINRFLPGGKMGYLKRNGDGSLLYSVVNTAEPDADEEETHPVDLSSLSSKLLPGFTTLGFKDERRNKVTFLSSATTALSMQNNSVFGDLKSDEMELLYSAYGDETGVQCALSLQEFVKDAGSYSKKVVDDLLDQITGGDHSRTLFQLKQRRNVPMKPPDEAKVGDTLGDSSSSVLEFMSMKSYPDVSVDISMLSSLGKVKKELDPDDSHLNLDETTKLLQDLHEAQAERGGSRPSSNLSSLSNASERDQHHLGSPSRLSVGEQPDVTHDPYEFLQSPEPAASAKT
Test Description: Degradation of BRD9 (IF), immunofluorescence in MV4-11 cells, 24 hours (Assay Protocol 2)
Type: cell-based
Set-up: A suspension of MV4-11 cells (ATCC CRL-9591) was prepared; host or cells: MV4-11
Condition Set: Table 4; BRD9 degradation, determined according to Assay Protocol 2; read-out: DC50^2
Test Readout: DC50

COc1cc(-c2cn(C)c(=O)c(C)c2C)cc(OC)c1C(=O)N1CCN(C(=O)/C(C#N)=C/C(C)(C)C)CC1 ... < 25 nM
COc1cc(-c2cn(C)c(=O)c(C)c2C)cc(OC)c1CN1CCN(C(=O)[C@@H]2CN(C(=O)/C(C#N)=C/C(C)(C)C)C[C@H]2C(C)C)CC1 ... 25 to 200 nM
COc1cc(-c2cn(C)c(=O)c(C)c2C)cc(OC)c1CN1CCN(C(=O)/C(C#N)=C/c2cccc(Br)n2)CC1 ... < 25 nM

Reported DC50 of COc1cc(-c2cn(C)c(=O)c(C)c2C)cc(OC)c1C(=O)N1CCCN(C(=O)/C(C#N)=C/C(C)(C)C)CC1 : < 25 nM

Reported DC50 of COc1cc(-c2cn(C)c(=O)c(C)c2C)cc(OC)c1CN1CC2CC1CN2C(=O)/C(C#N)=C/c1cccc(C(F)(F)F)n1 (mixture of isomers) : < 25 nM

Reported DC50 of COc1cc(-c2cn(C)c(=O)c(C)c2C)cc(OC)c1C(=O)N1CC2CC1CN2C(=O)/C(C#N)=C/C(C)(C)C (mixture of isomers) : > 200 nM

Reported DC50 of COc1cc(-c2cn(C)c(=O)c(C)c2C)cc(OC)c1CN1C2CC1CN(C(=O)/C(C#N)=C/c1cc(C)on1)C2 (mixture of isomers) : < 25 nM
